target: recombinant human secreted phospholipase A2 (Homo sapiens); assay: Human secreted phospholipase A2 inhibition test (chromogenic assay, diheptanoyl thio-PC substrate); assay type: biochemical; conditions: pH 7.5, 40° C., 30 minutes, 405 nm; read-out: Inhibition of human secreted PLA2 IC50 ± mean deviation (3-5 tests)
OUTCOME_MEASURE: IC50 (nM)

>>> df
                                smiles_code  outcome_measure  test_value
0     CCc1c(CC(N)=O)c2cc(OC)ccc2n1Cc1ccccc1             IC50         260
1  COC(=O)CCN(CCC(=O)OC)c1ccc2c(c1)c(CC(N)=O)c(C)n2Cc1ccccc1             IC50        2490
2  NC(=O)Cc1c(C2CC2)n(Cc2ccccc2)c2ccc(O)cc12             IC50         118
3  CCCCCCCCn1c(C)c(CC(N)=O)c2cc(OCCCC(=O)O)ccc21             IC50         770

A = CCCCCCCCn1c(C)c(CC(N)=O)c2cc(OC)ccc21
B = COC(=O)c1ccccc1COc1ccc2c(c1)c(CC(N)=O)c(C)n2Cc1ccccc1
Select one: A or B . Criterion: greater recorded IC50. Kindly give the label for the entry you pick.
A

I = CCCCCCCCCCn1c(C)c(CC(N)=O)c2cc(OC)ccc21
II = CCCCCCCCCCCCCCn1c(C)c(CC(N)=O)c2cc(OCCCC(=O)O)ccc21
Select one: I or II . Criterion: greater recorded IC50. Kindly give the label for the entry you pick.
I
(I: 8480 nM, II: 470 nM)

###

Target: recombinant human secreted phospholipase A2 (Homo sapiens)
Sequence (P14555 21-144): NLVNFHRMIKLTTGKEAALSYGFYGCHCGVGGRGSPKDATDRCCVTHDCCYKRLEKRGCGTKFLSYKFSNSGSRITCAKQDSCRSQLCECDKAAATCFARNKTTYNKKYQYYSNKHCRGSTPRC
Experiment: Human secreted phospholipase A2 inhibition test (chromogenic assay, diheptanoyl thio-PC substrate)
Format: biochemical
Details: pH 7.5, 40° C., 30 minutes, 405 nm; read-out: Inhibition of human secreted PLA2 IC50 ± mean deviation (3-5 tests)
Experimental: The following chromogenic assay procedure was used to identify and evaluate inhibitors of recombinant human secreted phospholipase A2. The assay described herein has been adapted for high volume screening using 96 well microtiter plates. A measured volume of racetic dipheptanoyl thio PC supplied in chloroform at a concentration of 100 mg/ml is taken to dryness and redissolved in 10 millimolar TRITON X-100™ nonionic detergent aqueous solution. […]
OUTCOME_MEASURE: IC50 (nM)

>>> df
                                   molecule                         target_under_test  unit_string  test_value
0  CCc1c(CC(N)=O)c2cc(OCc3ccccc3C(=O)OC)ccc2n1Cc1ccccc1 [Example 98]  recombinant human secreted phospholipase A2 (Homo sapiens)           nM        1150
1  NC(=O)Cc1cn(Cc2ccccc2)c2ccc(OCCCC(=O)O)cc12 [Example 83]  recombinant human secreted phospholipase A2 (Homo sapiens)           nM         150

1 = NC(=O)Cc1c(Br)n(Cc2ccccc2)c2ccc(OCCCC(=O)O)cc12 [Example 43]
2 = Cc1ccc2c(CC(N)=O)c(C)n(Cc3ccccc3)c2c1 [Example 1]
3 = COc1ccc2c(c1)c(CC(N)=O)cn2Cc1ccccc1 [Example 3]
# desc sort on IC50 across 3 molecules # the answer lists labels in the order requested
3, 2, 1

I = Cc1c(CC(N)=O)c2ccc(O)cc2n1Cc1ccccc1 [Example 30]
II = COc1ccc2c(c1)c(CC(N)=O)c(C)n2Cc1ccc(OCc2ccccc2)cc1 [Example 7]
Could you determine which record has the numerically smaller IC50? Candidates: I and II Kindly give the label for the entry you pick.
I

P = CCc1c(CC(N)=O)c2cc(O)ccc2n1Cc1ccccc1 [Example 56]
Q = COc1ccc2c(c1)c(CC(N)=O)c(C)n2Cc1ccccc1 [Example 5]
R = CCc1c(CC(N)=O)c2cc(OCCCC(N)=O)ccc2n1Cc1ccccc1 [Example 60]
S = Cc1c(CC(N)=O)c2ccc(OCCCC(=O)O)cc2n1Cc1ccccc1 [Example 32]
T = CCCc1c(CC(N)=O)c2cc(OC)ccc2n1Cc1ccccc1 [Example 10]
Arrange the 5 entries by IC50 so the values rise. # the answer lists labels in the order requested
R, P, Q, S, T

###

target: sPLA2 (Homo sapiens, UniProt P14555); assay: Tissue test: sPLA2-induced contraction of guinea pig lung pleural strips; design: species or system guinea pig (male Hartley); details: % suppression of sPLA2 contraction (sPLA2 10 ug/ml) at compound concentration of 30 uM, read-out: Tissue Test (sPLA2) % Supp (30 uM)
Collected inhibition at 30 µM values appear next to each entry.
Field: numeric (%). Do not append units.

>>> df
                                   compound      outcome_measure  unit_string  test_value
0  CCOC(=O)COc1ccc2c(c1)c(CC(N)=O)c(C)n2Cc1ccccc1 [Example 18]  inhibition at 30 µM            %        74.1
1  CCc1c(CC(N)=O)c2cc(OC)ccc2n1Cc1ccccc1 [Example 9]  inhibition at 30 µM            %        49.2
2  COc1ccc2c(c1)c(CC(N)=O)c(C)n2CC1CCCCC1 [Example 4]  inhibition at 30 µM            %        10.5
3  Cc1c(CC(N)=O)c2cc(OCCCCC(=O)O)ccc2n1Cc1ccccc1 [Example 23]  inhibition at 30 µM            %        83.3
4  Cc1c(CC(N)=O)c2cc([N+](=O)[O-])ccc2n1Cc1ccccc1 [Example 16]  inhibition at 30 µM            %        51.7

I have this compound here, COc1ccc2c(c1)c(CC(N)=O)c(C)n2Cc1ccccc1 [Example 5] , and I need its recorded inhibition at 30 µM.
74.9

I have this compound here, COc1ccc2c(c1)c(CC(N)=O)c(SC)n2Cc1ccccc1 [Example 12] , and I need its recorded inhibition at 30 µM.
30.3

###

Target: recombinant human secreted phospholipase A2 (Homo sapiens)
Sequence (P14555 21-144): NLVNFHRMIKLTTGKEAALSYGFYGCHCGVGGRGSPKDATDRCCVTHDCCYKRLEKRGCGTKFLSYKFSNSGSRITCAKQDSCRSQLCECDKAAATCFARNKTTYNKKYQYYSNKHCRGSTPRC
Experiment: Human secreted phospholipase A2 inhibition test (chromogenic assay, diheptanoyl thio-PC substrate)
Format: biochemical
Conditions: pH 7.5, 40° C., 30 minutes, 405 nm; read-out: Inhibition of human secreted PLA2 IC50 ± mean deviation (3-5 tests)
Where a name gives a salt, the structure may show the parent alone.
OUTCOME_MEASURE: IC50 (nM)

>>> df
                                   compound  outcome_measure  unit_string  test_value
0  CCOC(=O)CCCOc1cccc2c1c(CC(N)=O)c(C)n2Cc1ccccc1 [Example 37]             IC50           nM        9440
1  Cc1c(CC(N)=O)c2cc(NCCC(=O)NN)ccc2n1Cc1ccccc1 [Example 28]             IC50           nM        1550
2  COC(=O)CCOc1ccc2c(c1)c(CC(N)=O)c(C)n2Cc1ccccc1 [Example 20]             IC50           nM        1050
3  COc1ccc2c(c1)c(CC(N)=O)c(C)n2Cc1ccccn1 [Example 8]             IC50           nM       21400
4  COC(=O)c1cccc(COc2ccc3c(c2)c(CC(N)=O)c(C)n3Cc2ccccc2)c1 [Example 100]             IC50           nM        3840

a = Cc1c(CC(N)=O)c2cc(C(N)=O)ccc2n1Cc1ccccc1 [Example 15]
b = Cc1c(CC(N)=O)c2cc(O)ccc2n1Cc1cccc(Cl)c1 [Example 70]
c = C=CCc1c(OCCCP(=O)(O)O)ccc2c1c(CC(N)=O)c(CC)n2Cc1ccccc1 [Example 94, disodium salt]
Arrange the 3 entries by IC50 so the values rise. # the answer lists labels in the order requested
c, a, b
(c: 612 nM, a: 1510 nM, b: 5880 nM)

###

Target: recombinant human secreted phospholipase A2 (Homo sapiens, UniProt P14555)
Sequence (P14555 21-144): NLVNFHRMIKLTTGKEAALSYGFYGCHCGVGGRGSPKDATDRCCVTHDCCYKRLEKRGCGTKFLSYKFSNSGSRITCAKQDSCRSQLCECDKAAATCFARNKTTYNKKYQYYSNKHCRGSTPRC
Test: Human secreted phospholipase A2 inhibition test (chromogenic assay, diheptanoyl thio-PC substrate)
Assay type: biochemical
Conditions: unit printed um; pH 7.5, 40° C., 30 minutes, 405 nm; read-out: Inhibition of human secreted PLA2 IC50 ± mean deviation (3-5 tests)
OUTCOME_MEASURE: IC50 (nM)
Field: numeric (nM). Do not append units.

I have this compound here, COc1ccc2c(CC(N)=O)c(C)n(Cc3ccccc3)c2c1 [Example 29] , and I need its recorded IC50.
1230

Each recorded value in this set is attributed to patent US5684034A.
